Below: a set of entries, each annotated with reported GRinf.
- Tested on: Mycobacterium tuberculosis Erdman (autoluminescent)
- EXPERIMENT: GRinf, maximum normalised growth rate inhibition (three-drug combination) (unitless (-1 to 1)); higher = less effect (negative = killing)
- CONDITION PARAMETERS: in vitro model: standard 7H9 glycerol; time point: constant = terminal
Please reply with the number alone, leaving off any unit.

INSERT INTO measurements (compound, observed_measurement) VALUES
  ('COc1c(N2C[C@@H]3CCCN[C@@H]3C2)c(F)cc2c(=O)c(C(=O)O)cn(C3CC3)c12 [moxifloxacin] + O=[N+]([O-])c1cn2c(n1)OC[C@@H](OCc1ccc(OC(F)(F)F)cc1)C2 [pretomanid] + CO[C@H]1/C=C/O[C@@]2(C)Oc3c(C)c(O)c4c(O)c(c(/C=N/N5CCN(C6CCCC6)CC5)c(O)c4c3C2=O)NC(=O)/C(C)=C\C=C\[C@H](C)[C@H](O)[C@@H](C)[C@@H](O)[C@@H](C)[C@H](OC(C)=O)[C@@H]1C [rifapentine]', -0.0296),
  ('COc1nc2ccc(Br)cc2cc1[C@@H](c1ccccc1)[C@@](O)(CCN(C)C)c1cccc2ccccc12 [bedaquiline] + COc1c(N2C[C@@H]3CCCN[C@@H]3C2)c(F)cc2c(=O)c(C(=O)O)cn(C3CC3)c12 [moxifloxacin] + NC(=O)c1cnccn1 [pyrazinamide]', -0.108);

Given CC(C)/N=c1\cc2n(-c3ccc(Cl)cc3)c3ccccc3nc-2cc1Nc1ccc(Cl)cc1 [clofazimine] + O=[N+]([O-])c1cn2c(n1)OC[C@@H](OCc1ccc(OC(F)(F)F)cc1)C2 [pretomanid] + NC(=O)c1cnccn1 [pyrazinamide] , state its recorded GRinf. -0.335

----------
- System: Mycobacterium tuberculosis Erdman (autoluminescent)
- EXPERIMENT: total FIC50 (Loewe) at 50% inhibition, three-drug combination (log2); higher = more antagonistic
- CONDITION PARAMETERS: in vitro model: dormancy (butyrate + nitrate, low O2); time point: terminal (~4-5 doublings, model-specific)
Use 1 when the recorded total FIC50 is no lower than 0.3; use 0 when it is lower.

Field: example entries. Status: answers known.
INSERT INTO measurements (compound, target_system, assigned_category) VALUES
  ('CC(=O)NC[C@H]1CN(c2ccc(N3CCOCC3)c(F)c2)C(=O)O1 [linezolid] + O=[N+]([O-])c1cn2c(n1)OC[C@@H](OCc1ccc(OC(F)(F)F)cc1)C2 [pretomanid] + CO[C@H]1/C=C/O[C@@]2(C)Oc3c(C)c(O)c4c(O)c(c(/C=N/N5CCN(C6CCCC6)CC5)c(O)c4c3C2=O)NC(=O)/C(C)=C\C=C\[C@H](C)[C@H](O)[C@@H](C)[C@@H](O)[C@@H](C)[C@H](OC(C)=O)[C@@H]1C [rifapentine]', 'Mycobacterium tuberculosis Erdman (autoluminescent)', 1),
  ('NNC(=O)c1ccncc1 [isoniazid] + COc1c(N2C[C@@H]3CCCN[C@@H]3C2)c(F)cc2c(=O)c(C(=O)O)cn(C3CC3)c12 [moxifloxacin] + CO[C@H]1/C=C/O[C@@]2(C)Oc3c(C)c(O)c4c(O)c(c(/C=N/N5CCN(C6CCCC6)CC5)c(O)c4c3C2=O)NC(=O)/C(C)=C\C=C\[C@H](C)[C@H](O)[C@@H](C)[C@@H](O)[C@@H](C)[C@H](OC(C)=O)[C@@H]1C [rifapentine]', 'Mycobacterium tuberculosis Erdman (autoluminescent)', 1),
  ('CC[C@@H](CO)NCCN[C@@H](CC)CO [ethambutol] + COc1c(N2C[C@@H]3CCCN[C@@H]3C2)c(F)cc2c(=O)c(C(=O)O)cn(C3CC3)c12 [moxifloxacin] + NC(=O)c1cnccn1 [pyrazinamide]', 'Mycobacterium tuberculosis Erdman (autoluminescent)', 0),
  ('COc1nc2ccc(Br)cc2cc1[C@@H](c1ccccc1)[C@@](O)(CCN(C)C)c1cccc2ccccc12 [bedaquiline] + CC[C@@H](CO)NCCN[C@@H](CC)CO [ethambutol] + COc1c(N2C[C@@H]3CCCN[C@@H]3C2)c(F)cc2c(=O)c(C(=O)O)cn(C3CC3)c12 [moxifloxacin]', 'Mycobacterium tuberculosis Erdman (autoluminescent)', 1),
  ('COc1nc2ccc(Br)cc2cc1[C@@H](c1ccccc1)[C@@](O)(CCN(C)C)c1cccc2ccccc12 [bedaquiline] + CC[C@@H](CO)NCCN[C@@H](CC)CO [ethambutol] + O=[N+]([O-])c1cn2c(n1)OC[C@@H](OCc1ccc(OC(F)(F)F)cc1)C2 [pretomanid]', 'Mycobacterium tuberculosis Erdman (autoluminescent)', 1),
  ('CC(C)/N=c1\cc2n(-c3ccc(Cl)cc3)c3ccccc3nc-2cc1Nc1ccc(Cl)cc1 [clofazimine] + NNC(=O)c1ccncc1 [isoniazid] + O=[N+]([O-])c1cn2c(n1)OC[C@@H](OCc1ccc(OC(F)(F)F)cc1)C2 [pretomanid]', 'Mycobacterium tuberculosis Erdman (autoluminescent)', 0);

Does the reported total FIC50 for O=[N+]([O-])c1cn2c(n1)OC[C@@H](OCc1ccc(OC(F)(F)F)cc1)C2 [pretomanid] + NC(=O)c1cnccn1 [pyrazinamide] + CO[C@H]1/C=C/O[C@@]2(C)Oc3c(C)c(O)c4c(O)c(c(/C=N/N5CCN(C6CCCC6)CC5)c(O)c4c3C2=O)NC(=O)/C(C)=C\C=C\[C@H](C)[C@H](O)[C@@H](C)[C@@H](O)[C@@H](C)[C@H](OC(C)=O)[C@@H]1C [rifapentine] fall at or above the 0.3 mark? 0

----------
GRinf values, listed per item
- Tested on: Mycobacterium tuberculosis Erdman (autoluminescent)
- EXPERIMENT: GRinf, maximum normalised growth rate inhibition (three-drug combination) (unitless (-1 to 1)); higher = less effect (negative = killing)
- CONDITION PARAMETERS: in vitro model: intracellular J774; time point: constant = terminal
Lab note: jot down the number only; don't add units.

INSERT INTO results (compound, observed_measurement) VALUES
  ('CC(C)/N=c1\cc2n(-c3ccc(Cl)cc3)c3ccccc3nc-2cc1Nc1ccc(Cl)cc1 [clofazimine] + NNC(=O)c1ccncc1 [isoniazid] + NC(=O)c1cnccn1 [pyrazinamide]', -0.705);

Write down the reported GRinf of COc1nc2ccc(Br)cc2cc1[C@@H](c1ccccc1)[C@@](O)(CCN(C)C)c1cccc2ccccc12 [bedaquiline] + CC[C@@H](CO)NCCN[C@@H](CC)CO [ethambutol] + CC(=O)NC[C@H]1CN(c2ccc(N3CCOCC3)c(F)c2)C(=O)O1 [linezolid] , test system: Mycobacterium tuberculosis Erdman (autoluminescent). -0.379

// same read-out, input: CC(C)/N=c1\cc2n(-c3ccc(Cl)cc3)c3ccccc3nc-2cc1Nc1ccc(Cl)cc1 [clofazimine] + CC[C@@H](CO)NCCN[C@@H](CC)CO [ethambutol] + NNC(=O)c1ccncc1 [isoniazid] -0.375

Also CC(C)/N=c1\cc2n(-c3ccc(Cl)cc3)c3ccccc3nc-2cc1Nc1ccc(Cl)cc1 [clofazimine] + NNC(=O)c1ccncc1 [isoniazid] + CC(=O)NC[C@H]1CN(c2ccc(N3CCOCC3)c(F)c2)C(=O)O1 [linezolid] , if possible. 0.168

----------
- System: Mycobacterium tuberculosis Erdman (autoluminescent)
- EXPERIMENT: Einf, fitted maximum growth inhibition of three-drug combination (fraction); higher = stronger maximal inhibition
- CONDITION PARAMETERS: in vitro model: cholesterol-high 0.2 mM; time point: constant (~7 days, model-specific)
This section presents compounds with their documented Einf values.
Just the number, please, no unit after it.

INSERT INTO assay_data (compound, measured_property, observed_measurement) VALUES
  ('COc1nc2ccc(Br)cc2cc1[C@@H](c1ccccc1)[C@@](O)(CCN(C)C)c1cccc2ccccc12 [bedaquiline] + NC(=O)c1cnccn1 [pyrazinamide] + CO[C@H]1/C=C/O[C@@]2(C)Oc3c(C)c(O)c4c(O)c(c(/C=N/N5CCN(C6CCCC6)CC5)c(O)c4c3C2=O)NC(=O)/C(C)=C\C=C\[C@H](C)[C@H](O)[C@@H](C)[C@@H](O)[C@@H](C)[C@H](OC(C)=O)[C@@H]1C [rifapentine]', 'Einf', 0.959),
  ('CC(=O)NC[C@H]1CN(c2ccc(N3CCOCC3)c(F)c2)C(=O)O1 [linezolid] + NC(=O)c1cnccn1 [pyrazinamide] + CO[C@H]1/C=C/O[C@@]2(C)Oc3c(C)c(O)c4c(O)c(c(/C=N/N5CCN(C)CC5)c(O)c4c3C2=O)NC(=O)/C(C)=C\C=C\[C@H](C)[C@H](O)[C@@H](C)[C@@H](O)[C@@H](C)[C@H](OC(C)=O)[C@@H]1C [rifampicin]', 'Einf', 0.926),
  ('CC(C)/N=c1\cc2n(-c3ccc(Cl)cc3)c3ccccc3nc-2cc1Nc1ccc(Cl)cc1 [clofazimine] + NNC(=O)c1ccncc1 [isoniazid] + O=[N+]([O-])c1cn2c(n1)OC[C@@H](OCc1ccc(OC(F)(F)F)cc1)C2 [pretomanid]', 'Einf', 0.971),
  ('COc1nc2ccc(Br)cc2cc1[C@@H](c1ccccc1)[C@@](O)(CCN(C)C)c1cccc2ccccc12 [bedaquiline] + CC[C@@H](CO)NCCN[C@@H](CC)CO [ethambutol] + CO[C@H]1/C=C/O[C@@]2(C)Oc3c(C)c(O)c4c(O)c(c(/C=N/N5CCN(C6CCCC6)CC5)c(O)c4c3C2=O)NC(=O)/C(C)=C\C=C\[C@H](C)[C@H](O)[C@@H](C)[C@@H](O)[C@@H](C)[C@H](OC(C)=O)[C@@H]1C [rifapentine]', 'Einf', 0.996);

Would you mind telling me what Einf value was observed for NNC(=O)c1ccncc1 [isoniazid] + COc1c(N2C[C@@H]3CCCN[C@@H]3C2)c(F)cc2c(=O)c(C(=O)O)cn(C3CC3)c12 [moxifloxacin] + CO[C@H]1/C=C/O[C@@]2(C)Oc3c(C)c(O)c4c(O)c(c(/C=N/N5CCN(C)CC5)c(O)c4c3C2=O)NC(=O)/C(C)=C\C=C\[C@H](C)[C@H](O)[C@@H](C)[C@@H](O)[C@@H](C)[C@H](OC(C)=O)[C@@H]1C [rifampicin] ? 0.879

Same lookup for CC(C)/N=c1\cc2n(-c3ccc(Cl)cc3)c3ccccc3nc-2cc1Nc1ccc(Cl)cc1 [clofazimine] + COc1c(N2C[C@@H]3CCCN[C@@H]3C2)c(F)cc2c(=O)c(C(=O)O)cn(C3CC3)c12 [moxifloxacin] + CO[C@H]1/C=C/O[C@@]2(C)Oc3c(C)c(O)c4c(O)c(c(/C=N/N5CCN(C6CCCC6)CC5)c(O)c4c3C2=O)NC(=O)/C(C)=C\C=C\[C@H](C)[C@H](O)[C@@H](C)[C@@H](O)[C@@H](C)[C@H](OC(C)=O)[C@@H]1C [rifapentine] , please. 0.933

Same question for COc1nc2ccc(Br)cc2cc1[C@@H](c1ccccc1)[C@@](O)(CCN(C)C)c1cccc2ccccc12 [bedaquiline] + CC(C)/N=c1\cc2n(-c3ccc(Cl)cc3)c3ccccc3nc-2cc1Nc1ccc(Cl)cc1 [clofazimine] + NC(=O)c1cnccn1 [pyrazinamide] please. 0.921

One more compound: COc1nc2ccc(Br)cc2cc1[C@@H](c1ccccc1)[C@@](O)(CCN(C)C)c1cccc2ccccc12 [bedaquiline] + O=[N+]([O-])c1cn2c(n1)OC[C@@H](OCc1ccc(OC(F)(F)F)cc1)C2 [pretomanid] + CO[C@H]1/C=C/O[C@@]2(C)Oc3c(C)c(O)c4c(O)c(c(/C=N/N5CCN(C6CCCC6)CC5)c(O)c4c3C2=O)NC(=O)/C(C)=C\C=C\[C@H](C)[C@H](O)[C@@H](C)[C@@H](O)[C@@H](C)[C@H](OC(C)=O)[C@@H]1C [rifapentine] 0.918

Input COc1c(N2C[C@@H]3CCCN[C@@H]3C2)c(F)cc2c(=O)c(C(=O)O)cn(C3CC3)c12 [moxifloxacin] + NC(=O)c1cnccn1 [pyrazinamide] + CO[C@H]1/C=C/O[C@@]2(C)Oc3c(C)c(O)c4c(O)c(c(/C=N/N5CCN(C)CC5)c(O)c4c3C2=O)NC(=O)/C(C)=C\C=C\[C@H](C)[C@H](O)[C@@H](C)[C@@H](O)[C@@H](C)[C@H](OC(C)=O)[C@@H]1C 0.912

Input CC(=O)NC[C@H]1CN(c2ccc(N3CCOCC3)c(F)c2)C(=O)O1 [linezolid] + COc1c(N2C[C@@H]3CCCN[C@@H]3C2)c(F)cc2c(=O)c(C(=O)O)cn(C3CC3)c12 [moxifloxacin] + CO[C@H]1/C=C/O[C@@]2(C)Oc3c(C)c(O)c4c(O)c(c(/C=N/N5CCN(C6CCCC6)CC5)c(O)c4c3C2=O)NC(=O)/C(C)=C\C=C\[C@H](C)[C@H](O)[C@@H](C)[C@@H](O)[C@@H](C)[C@H](OC(C)=O)[C@@H]1C [rifapentine] 0.913

The measurements presented in this section are drawn from the supplement of paper PMC8617591.
